Test System: FOLR1 (human, UniProt P15328)
Sequence (P15328 25-234): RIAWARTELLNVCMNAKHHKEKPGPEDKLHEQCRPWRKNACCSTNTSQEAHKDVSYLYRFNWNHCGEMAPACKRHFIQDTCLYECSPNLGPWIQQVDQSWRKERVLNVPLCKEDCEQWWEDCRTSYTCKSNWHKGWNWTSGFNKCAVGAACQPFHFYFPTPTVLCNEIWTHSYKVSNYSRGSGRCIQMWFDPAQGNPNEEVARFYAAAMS
Assay Procedure: BLI, 25C
Measured Parameter: Kd

[[record]]
binder = "RGVPHIVMVDAYKRYKG (biotinylated; two D-arginine substitutions; additional C-terminal Lys conjugated to folate (folate is the FOLR1-binding moiety)) [b-SpyTag003(D2)-K(folate)]"
result = "0.345 nM"

